method-notes: Concentration required to inhibit 50% of the cultured colonies of H-Ras-Fcells.
parameter: IC50 (nM)

> print(dat)
                                   molecule  recorded.measurement
1  CC(C)(CNC(=O)CN(Cc1ccc(OCc2ccccc2)cc1)C(=O)[C@H](Cc1cnc[nH]1)NC(=O)OCc1ccccc1)c1ccccc1                   180

a = O=C(CN(Cc1ccc(OCc2ccccc2)cc1)C(=O)[C@H](Cc1cnc[nH]1)NC(=O)OCc1ccccc1)NCC1(c2ccccc2)CCCC1
b = O=C(CN(Cc1ccc(OCc2ccccc2)cc1)C(=O)[C@H](Cc1cnc[nH]1)NC(=O)OCc1ccccc1)NCC1(c2ccccc2)CC1
c = C[C@@H](CNC(=O)CN(Cc1ccc(OCc2ccccc2)cc1)C(=O)[C@H](Cc1cnc[nH]1)NC(=O)OCc1ccccc1)c1ccccc1
d = C[C@@H](Cc1ccccc1)NC(=O)CN(Cc1ccc(OCc2ccccc2)cc1)C(=O)[C@H](Cc1cnc[nH]1)NC(=O)OCc1ccccc1
e = O=C(CN(Cc1ccc(OCc2ccccc2)cc1)C(=O)[C@H](Cc1cnc[nH]1)NC(=O)OCc1ccccc1)NCCc1ccccc1
Sort ascending by IC50. Write the labels in rank order as requested.
b, a, c, e, d

---

method-notes: Concentration required to inhibit 50% of the cultured colonies of H-Ras-Fcells.
parameter: IC50 (µM)

1 = C[C@H](CNC(=O)CN(Cc1ccc(OCc2ccccc2)cc1)C(=O)[C@H](Cc1cnc[nH]1)NC(=O)OCc1ccccc1)c1ccccc1
2 = N#CC(CNC(=O)CN(Cc1ccc(OCc2ccccc2)cc1)C(=O)[C@H](Cc1cnc[nH]1)NC(=O)OCc1ccccc1)c1ccccc1 (some centres undefined)
Lab note: check whether 1 or 2 shows the higher recorded IC50. Your choice should be expressed through its label.
1
(1: 0.3 µM, 2: 0.19 µM)

---

method-notes: Concentration required to inhibit 50% of the cultured colonies of H-Ras-Fcells.
pIC50: −log10 of the molar value.
parameter: pIC50

I = O=C(CN(Cc1ccc(OCc2ccccc2)cc1)C(=O)[C@H](Cc1cnc[nH]1)NC(=O)OCc1ccccc1)NCCOCc1ccccc1
II = C[C@H](Cc1ccccc1)NC(=O)CN(Cc1ccc(OCc2ccccc2)cc1)C(=O)[C@H](Cc1cnc[nH]1)NC(=O)OCc1ccccc1
III = O=C(CN(Cc1ccc(OCc2ccccc2)cc1)C(=O)[C@H](Cc1cnc[nH]1)NC(=O)OCc1ccccc1)NCC1(c2ccccc2)CCC1
In this exercise, place the 3 compounds in ascending sequence of their recorded pIC50. Write the labels in rank order as requested.
I, II, III
(I: 4.84, II: 6.15, III: 7.06)

Numbers sourced from BindingDB's records for doi:10.1021/jm970470c.
